target entity: HER2 expressed on the surface of cells (human, UniProt P04626 23-1255)
assay overview: cell-based or functional assay
Classification field: TRUE = growth inhibition span ratio to WT, BT474 cells + EGF at or over 2 fold; FALSE = growth inhibition span ratio to WT, BT474 cells + EGF under 2 fold.

INSERT INTO measurements (binder, classification) VALUES
  ('Variant 14022 (antibody, name in Kabat numbering, V domains shown, also called v14022) VH: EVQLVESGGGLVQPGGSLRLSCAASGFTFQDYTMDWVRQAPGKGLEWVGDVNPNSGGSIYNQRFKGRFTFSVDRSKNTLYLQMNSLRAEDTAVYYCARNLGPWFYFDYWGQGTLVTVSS VL: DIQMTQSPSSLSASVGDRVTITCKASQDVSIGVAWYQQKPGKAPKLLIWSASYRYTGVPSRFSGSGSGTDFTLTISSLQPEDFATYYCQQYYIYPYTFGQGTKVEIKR', 'FALSE'),
  ('Variant 12471 (antibody, human IgG1, kappa, name in Kabat numbering, V domains shown, Kabat numbering; also called v12471; FSA version of v9996) VH: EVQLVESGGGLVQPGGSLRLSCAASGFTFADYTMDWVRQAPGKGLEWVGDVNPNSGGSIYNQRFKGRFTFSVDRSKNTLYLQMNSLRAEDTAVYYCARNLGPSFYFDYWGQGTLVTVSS VL: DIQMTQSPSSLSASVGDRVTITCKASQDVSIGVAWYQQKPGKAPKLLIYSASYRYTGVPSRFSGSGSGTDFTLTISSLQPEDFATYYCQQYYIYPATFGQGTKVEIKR', 'FALSE'),
  ('Variant 14023 (antibody, name in Kabat numbering, V domains shown, also called v14023) VH: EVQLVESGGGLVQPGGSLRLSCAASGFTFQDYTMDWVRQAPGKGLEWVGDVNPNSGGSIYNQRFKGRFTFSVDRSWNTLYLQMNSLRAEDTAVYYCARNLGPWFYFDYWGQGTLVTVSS VL: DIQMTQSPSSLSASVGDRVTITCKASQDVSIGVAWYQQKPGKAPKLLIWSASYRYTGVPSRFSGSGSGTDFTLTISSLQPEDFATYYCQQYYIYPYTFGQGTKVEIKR', 'TRUE'),
  ('Variant 14019 (antibody, name in Kabat numbering, V domains shown, also called v14019) VH: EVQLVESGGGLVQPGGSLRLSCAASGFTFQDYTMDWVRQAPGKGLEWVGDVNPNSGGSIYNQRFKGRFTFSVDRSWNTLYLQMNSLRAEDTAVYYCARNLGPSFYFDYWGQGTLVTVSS VL: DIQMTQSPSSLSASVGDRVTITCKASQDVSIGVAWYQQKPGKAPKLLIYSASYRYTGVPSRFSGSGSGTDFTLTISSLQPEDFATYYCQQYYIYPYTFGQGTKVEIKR', 'FALSE'),
  ('Variant 14021 (antibody, name in Kabat numbering, V domains shown, also called v14021) VH: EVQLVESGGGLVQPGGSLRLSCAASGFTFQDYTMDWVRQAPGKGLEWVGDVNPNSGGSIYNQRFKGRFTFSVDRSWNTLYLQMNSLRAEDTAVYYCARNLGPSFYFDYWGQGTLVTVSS VL: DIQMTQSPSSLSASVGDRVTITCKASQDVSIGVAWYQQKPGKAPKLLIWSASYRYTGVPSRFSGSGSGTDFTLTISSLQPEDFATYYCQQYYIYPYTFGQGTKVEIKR', 'TRUE'),
  ('Variant 14018 (antibody, name in Kabat numbering, V domains shown, also called v14018) VH: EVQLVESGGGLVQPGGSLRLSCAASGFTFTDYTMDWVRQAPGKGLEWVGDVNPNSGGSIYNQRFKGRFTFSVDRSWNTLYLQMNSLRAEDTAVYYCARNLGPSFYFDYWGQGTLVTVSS VL: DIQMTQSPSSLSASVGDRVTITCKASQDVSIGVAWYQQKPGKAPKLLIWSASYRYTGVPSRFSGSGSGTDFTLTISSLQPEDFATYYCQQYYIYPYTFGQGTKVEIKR', 'FALSE');
